The measurements presented in this section are drawn from the supplement of paper PMC12764529.

# METHOD_NOTES: folding stability dG unfold from chymotrypsin proteolysis; higher = more stable
Give met when the value for folding stability dG unfold is at least 1 kcal/mol. Give not met when it is less.

Task item: Please check the record SAGDFLKNLPPGIKRWRPVASDPDGHFVFVFKYKTPDRPRYMVIQFPPNGRIQDIHIFPPDEADKAVNKSAG [r5_73_TrROS] and state if its folding stability dG unfold is at or above 1 kcal/mol.
Reply: met

Task item: Please check the record SAGGSAGGSAGGSGMTLSVTVLEEKPERLPNGGTIITRTVRIPETGEVIEEVTYEPGALSAGGSAGGSAGGS [r4_94_JUSTAS] and state if its folding stability dG unfold is at or above 1 kcal/mol.
Reply: not met

Task item: Please check the record SAGGSAGGSAGTITINGKPITIEKLDNGYYKVKVNGKWYEIKPGEKIELPKGATVSIEKVSAGGSAGGSAGG [r11_147_TrROS_Hall] and state if its folding stability dG unfold is at or above 1 kcal/mol.
Reply: met

Task item: Please check the record SAGGSSPASVRTSQTTVTDPATGRTRSVTVTTLPDGTTVSTFDSPGGSLVTTTTTPDGTTTTVTADSAGGSA [r2_109_JUSTAS] and state if its folding stability dG unfold is at or above 1 kcal/mol.
Reply: met

Task item: Please check the record SAGGSAGGSAGGKEITIMMPSPEAIKKLLPPGWKITNIEPIGRDPEDGYPYYMITFKPDSAGGSAGGSAGGS [r10_256_TrROS] and state if its folding stability dG unfold is at or above 1 kcal/mol.
Reply: met

Task item: Please check the record SAGGSAWIWITYQFPPGGTLEQAKEQIVNYLQRLFGWKIEIPDIEVEREGNNWTVTFPIKIEPLPGSAGGSA [r15_105_TrROS] and state if its folding stability dG unfold is at or above 1 kcal/mol.
Reply: met

Task item: Please check the record SAGGNMFMIKIDDPDALKELANEPGISSVHYNPNNGRYTVMFNFPDGMRTFEIDAEDGKIKEIEPFPSAGGS [r8_251_TrROS] and state if its folding stability dG unfold is at or above 1 kcal/mol.
Reply: met

Task item: Please check the record SAGGSAGGSAKAKVIKTEEFELPNGVRIRIEYIEVDGKLIEKVEIEIKAESEEQKKALEKASAGGSAGGSAG [r3_158_TrROS_Hall] and state if its folding stability dG unfold is at or above 1 kcal/mol.
Reply: met

Task item: Please check the record SAGSVEVSVSGNEIHITAPEGISLEELIELIKKLFPGADIGEVSVEKLPDGRYVATFKAGFKPPSPDELSAG [r5_110_TrMRF] and state if its folding stability dG unfold is at or above 1 kcal/mol.
Reply: met

Task item: Please check the record SAGGGLLEELARELGFEAEIEEIPETGILRITLRPEDGSEVEITVKVTRIPGLGEVKLEVLEVKVRPTSAGG [r13_936_TrMRF] and state if its folding stability dG unfold is at or above 1 kcal/mol.
Reply: met

Task item: Please check the record SAGGSAGGSAGMKTLKIASISTSTSPTNTTLTTVTITSEGVTTTVTFPPGTTLEEVLEQLSAGGSAGGSAGG [r11_1056_JUSTAS] and state if its folding stability dG unfold is at or above 1 kcal/mol.
Reply: not met

Task item: Please check the record SAGGSAMDLKIKKKERDPPNGTKKLTVEVPGWEVEINIERNPDGPYKIEIYAPNPAAKNAIKEFIKSAGGSA [r15_42_TrROS] and state if its folding stability dG unfold is at or above 1 kcal/mol.
Reply: not met

Task item: Please check the record SAGGSAGGSAGNPPNKPKPIIKVVPFRYRFYIPETGSVIEIDIYVFEDDTVKIKIKTYPLSAGGSAGGSAGG [r11_883_TrMRF] and state if its folding stability dG unfold is at or above 1 kcal/mol.
Reply: met

Task item: Please check the record SKPETVTFPFNIPLKDMPLEDIKEEAKEWLRNFGYKVEKPEITPEMLKLLKDMPPGQEIPITITIKVEPKSA [r9_1163_TrROS] and state if its folding stability dG unfold is at or above 1 kcal/mol.
Reply: met

Task item: Please check the record SAGGSAGGSPLDIEIKMEFHPDHGYWEMEIKIPGNGREINIHYQYEGGKPQITSPEQILDAIKSAGGSAGGS [r20_131_TrROS] and state if its folding stability dG unfold is at or above 1 kcal/mol.
Reply: met

Task item: Please check the record SAGGSAGGSDDDDAKKAMEQMKPPPIPIKIQVKIEYDPSLGWLKVEIHFFGFGLRITGTIPIDSAGGSAGGS [r20_230_TrROS] and state if its folding stability dG unfold is at or above 1 kcal/mol.
Reply: met

Task item: Please check the record SMKTYTFTDPNNGIKYTITIDPNKPLVNVTVTKPGGEPVETQTVSVAPGKINLSLNVDGKPISISISLPESA [r9_385_JUSTAS] and state if its folding stability dG unfold is at or above 1 kcal/mol.
Reply: met

Task item: Please check the record SAGGSAGGSAMLTIPVTTPEEARELAEELLRRGYLRVEPTEDGDVTVIHPDGVPTRILVPTESAGGSAGGSA [r18_126_TrMRF] and state if its folding stability dG unfold is at or above 1 kcal/mol.
Reply: not met

Task item: Please check the record SAGMLNIPVDTPEKLLEIVKKLPGPVVVRSTSGTTVTVASLEELKEIAERGVPVELLLPEELPAEERAASAG [r5_677_JUSTAS] and state if its folding stability dG unfold is at or above 1 kcal/mol.
Reply: not met

Task item: Please check the record SAGGSAVEFTEPGAELLSEEKLPDGTVVKRVLLPDGSVLLLLPDNSIKTRSLSNPNTSLSEWDPELSAGGSA [r15_692_JUSTAS] and state if its folding stability dG unfold is at or above 1 kcal/mol.
Reply: not met

Task item: Please check the record SAGGSMTISLDETIDVPEDVGVTFTFADDTVATAYFDPSEGKVRVVVYDPNKPGTLLGEFTLPVLPSAGGSA [r2_266_TrMRF] and state if its folding stability dG unfold is at or above 1 kcal/mol.
Reply: met

Task item: Please check the record SAGMTITTTTPAEAAALAEELAKKNPVLNVTITVVDPETGTVTTIPFAVPAPLPRPYFDPETGEVTLEGSAG [r5_870_TrMRF] and state if its folding stability dG unfold is at or above 1 kcal/mol.
Reply: not met

Task item: Please check the record SAGGMPPGYRVVLVTKEVETVTFEKKPGNENEYTTTPKIVPREEVVEVTSPEVLAELEAEGYEVTPASAGGS [r8_482_JUSTAS] and state if its folding stability dG unfold is at or above 1 kcal/mol.
Reply: not met

Task item: Please check the record SNELAKEIADELKKQGYEVKDVEVQYSPDDGMVEIEARIRHPDDGRQYRIDIHVNPDDGKITQVKIEPRPSA [r9_814_TrROS] and state if its folding stability dG unfold is at or above 1 kcal/mol.
Reply: not met

Task item: Please check the record SMVTVDEKEDPNSDNKIYTVSLPENGEDVITITKAPDGTTTVTLHYPDGSTTTKTFPGNTPVTEAIKLLLSA [r9_346_JUSTAS] and state if its folding stability dG unfold is at or above 1 kcal/mol.
Reply: met

Task item: Please check the record SAGGSAGGSAGGFKLPPGKPIEFPIKHGGEPYPVEIWRDPNKLMIHFPGNNQWIPADDIKSAGGSAGGSAGG [r7_37_TrROS] and state if its folding stability dG unfold is at or above 1 kcal/mol.
Reply: not met

----------
# METHOD_NOTES: folding stability dG unfold (combined trypsin and chymotrypsin); higher = more stable
TEST_READOUT: folding stability dG unfold (kcal/mol)
Respond with the bare value in kcal/mol.

Task item: Determine from records and report folding stability dG unfold for SAGGSAGGMVIVFDKKNKTIYIYDKKTGKKIEIKVKSIEEAKEAIKKLFPNKKVEIVEVKIFKPSAGGSAGG [r6_286_TrROS_Hall]
Reply: 1.76

Task item: Determine from records and report folding stability dG unfold for SAGKETVKLVVVNKETNKVVEVTFNKDGEIVSVKVFEVKPAPPPPPVELSEEQLVKTKDGKWRSLEELKSAG [r5_685_TrROS_Hall]
Reply: 0.829

Task item: Determine from records and report folding stability dG unfold for SAGGSGMTTTFSKEVSSKEEAEKIFKRGFPDLNAKVTKFDPKKGTVEIELTFPDGKKSKATAPIKKSAGGSA [r2_201_JUSTAS]
Reply: -0.225

Task item: Determine from records and report folding stability dG unfold for SAGGHTIWIPFDSPEQAKELANEIARELNDHGLKVKVKVHPDDGWIKVKVDMRNNDKEKKIKIWFPFPSAGG [r13_641_TrROS]
Reply: 1.78

Task item: Determine from records and report folding stability dG unfold for SAGGSAGGSAGKKKLRLTLPGAEVEYDAATNELTIRLKAPPPPPKTTTKVETKTVLLPGKSAGGSAGGSAGG [r11_149_TrROS_Hall]
Reply: 0.989

Task item: Determine from records and report folding stability dG unfold for SAGGSAGGSAAAPPPPTITITVEVRTLPDGTVEITATATLPDGTTLTVTLRINADGSLTATSAGGSAGGSAG [r3_259_TrROS_Hall]
Reply: 3.17

Task item: Determine from records and report folding stability dG unfold for SHWVRKELQEKGYPVKDIEMNPPQGYFYITIQRKRPRKGKPKKKEITIPMDPNMTPDNMLWMARNALDAYSA [r9_184_TrROS]
Reply: 0.804

Task item: Determine from records and report folding stability dG unfold for SAGGSAGGSAGGNVRLTVTLDENGRLRVTAEVEVTNENGEKKTYRLTLTLKLKPGQTLTSAGGSAGGSAGGS [r10_763_TrROS_Hall]
Reply: 3.55

Task item: Determine from records and report folding stability dG unfold for SAGMVIVDPKTKKKITFDKESGEIYIEVDGKKKKIKLKPGEKVEIEIIEKDGKLIIKIKANGKIIEIEPSAG [r5_858_TrROS_Hall]
Reply: 1.75

Task item: Determine from records and report folding stability dG unfold for SAGGSAPSPEVPLWRFEAPGASGGVALIEGYPGGELRVVFFTDDGRPVELTFPVVVLPPAPLEELFSAGGSA [r15_478_TrMRF]
Reply: 1.38

Task item: Determine from records and report folding stability dG unfold for SAGGSAGGSAGSMTITITETKKLPNGKTVVTTTKVEVRVFPNGGAIERKTLEVVTEELLGSAGGSAGGSAGG [r17_129_JUSTAS]
Reply: 1.58

Task item: Determine from records and report folding stability dG unfold for SLDKARDILREHGMEPTSIDVVEDGWVKVTWEYPGNKVEIFIPEDGNIMIEFRNPNNGQRVERTIPVDDVSA [r9_2_TrROS]
Reply: 0.472

Task item: Determine from records and report folding stability dG unfold for SAGGKEKKKEKEEKKKKPKPKFIKIKLSPEELLKLAKELPNIDRIFVEVDGKLYEFDAKTGKIVEVDSAGGS [r16_214_TrROS_Hall]
Reply: 1.97
